study system: human P2X4 (Homo sapiens, UniProt Q99571)
Sequence (Q99571 whole entry): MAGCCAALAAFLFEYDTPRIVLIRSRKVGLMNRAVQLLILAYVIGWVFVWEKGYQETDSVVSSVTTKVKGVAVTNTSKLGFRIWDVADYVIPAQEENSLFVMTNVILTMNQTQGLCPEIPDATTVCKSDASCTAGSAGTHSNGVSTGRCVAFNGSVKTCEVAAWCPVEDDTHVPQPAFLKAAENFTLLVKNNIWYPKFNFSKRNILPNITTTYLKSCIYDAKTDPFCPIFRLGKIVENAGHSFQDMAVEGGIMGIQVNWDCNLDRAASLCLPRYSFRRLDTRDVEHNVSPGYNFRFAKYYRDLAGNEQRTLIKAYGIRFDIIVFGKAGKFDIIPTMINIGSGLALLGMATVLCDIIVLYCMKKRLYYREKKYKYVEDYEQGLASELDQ
protocol text: Human P2X4 HEK Cell FLIPR Assay
details: HEK293 cells, agonist Bz-ATP at EC80; individual values listed where some fall outside detection range
measured metric: IC50 (nM)

INSERT INTO measurements (molecule, measured_metric, u, value) VALUES
  ('NS(=O)(=O)c1cc(NC(=O)Cc2ccccc2F)cnc1-n1cc(Br)cn1', 'IC50', 'nM', 76),
  ('NS(=O)(=O)c1cc(NC(=O)Cc2ccccc2Cl)ccc1-c1cnn(C2CCOC2)c1 (centres unmarked)', 'IC50', 'nM', 27),
  ('NS(=O)(=O)c1cc(NC(=O)Cc2c(Cl)cccc2C(F)(F)F)ccc1-n1cc(F)cn1', 'IC50', 'nM', 85),
  ('NS(=O)(=O)c1cc(NC(=O)Cc2ccccc2Cl)ccc1-c1cncc(OC(F)F)c1', 'IC50', 'nM', 6);

(A) CC(C)(O)c1cnn(-c2ccc(NC(=O)Cc3ccccc3Cl)cc2S(N)(=O)=O)c1
(B) NS(=O)(=O)c1cc(NC(=O)Cc2ccccc2Cl)cnc1-c1cncc(C(F)(F)F)c1
(C) NS(=O)(=O)c1cc(NC(=O)Cc2ccc(F)c(F)c2)ccc1-c1ccc(Cl)nc1
(D) COCCc1cnn(-c2ccc(NC(=O)Cc3ccccc3Cl)cc2S(N)(=O)=O)c1
Put the molecules in ascending order of IC50. As an answer, provide the labels arranged in the order called for.
B, D, C, A

(P) Cc1cn(-c2ccc(NC(=O)Cc3ccccc3Cl)cc2S(N)(=O)=O)cn1
(Q) NS(=O)(=O)c1cc(NC(=O)Cc2ccccc2Cl)ccc1-n1cc(NC(=O)CC(F)(F)F)cn1
(R) CCOc1ccccc1CC(=O)Nc1ccc(-n2cc(C#N)cn2)c(S(N)(=O)=O)c1
(S) NS(=O)(=O)c1cc(NC(=O)Cc2ccccc2Cl)ccc1-n1cc2ccncc2n1
(T) NS(=O)(=O)c1cc(NC(=O)Cc2cccc(F)c2)ccc1-n1cnc(C(F)(F)F)n1
Sort by IC50, descending. Rank the items, then write their labels in that order.
T, R, Q, S, P
(T: 1400 nM, R: 299 nM, Q: 180 nM, S: 41 nM, P: 21 nM)

(1) NS(=O)(=O)c1cc(NC(=O)Cc2ccccc2OC(F)(F)F)ccc1-n1cc(C(F)(F)F)cn1
(2) NS(=O)(=O)c1cc(NC(=O)Cc2ccccc2Cl)ccc1-c1ccc(Cl)cc1
(3) NS(=O)(=O)c1cc(NC(=O)Cc2cccc(F)c2)ccc1-n1cc(Br)cn1
(4) NS(=O)(=O)c1cc(NC(=O)Cc2c(F)cc(F)cc2Cl)ccc1-n1cc(C(F)(F)F)cn1
Sort these molecules on IC50 so the largest reading comes first. Respond with an ordered listing of the labels, as requested.
3, 4, 1, 2

(1) NS(=O)(=O)c1cc(NC(=O)Cc2ccccc2C(F)(F)F)ccc1-n1cc(F)cn1
(2) Cn1nc(C(F)(F)F)cc1-c1ccc(NC(=O)Cc2ccccc2F)cc1S(N)(=O)=O
(3) CC(C(=O)Nc1cnn(-c2ccc(NC(=O)Cc3ccccc3Cl)cc2S(N)(=O)=O)c1)C(F)(F)F (single isomer, unassigned) [Example 509]
(4) NS(=O)(=O)c1cc(NC(=O)Cc2ccccc2Cl)ccc1-c1nc(N2CCOCC2)cs1
(5) N#Cc1cn(-c2ccc(NC(=O)Cc3ccccc3Cl)cc2S(N)(=O)=O)nc1Br
In this exercise, place the 5 molecules in ascending sequence of their recorded IC50. Record the ranking as a list of labels in the requested order.
5, 4, 1, 2, 3
(5: 1 nM, 4: 8 nM, 1: 77 nM, 2: 133 nM, 3: 326 nM)

(1) NS(=O)(=O)c1cc(NC(=O)Cc2ccccc2Cl)ccc1-c1cccnc1
(2) NS(=O)(=O)c1cc(NC(=O)C(F)(F)c2ccccc2Cl)ccc1-n1cnc(C(F)(F)F)n1
(3) NS(=O)(=O)c1cc(NC(=O)Cc2ccc(F)cc2Cl)ccc1-n1cnc(C(F)(F)F)n1
Write the entries in order, lowest recorded IC50 first. List the labels in the requested order.
1, 3, 2
(1: 60 nM, 3: 121 nM, 2: 400 nM)

(1) NS(=O)(=O)c1cc(NC(=O)Cc2ccc(Cl)cc2Cl)ccc1-c1cncc(F)c1
(2) NS(=O)(=O)c1cc(NC(=O)Cc2ccccc2Cl)ccc1-c1cnc(OC2CCC2)nc1
Rank 1 against 2 by their IC50 values and give the higher one. // respond with label for picked entry
2
(2: 362 nM, 1: 64 nM)

(I) NS(=O)(=O)c1cc(NC(=O)Cc2ccccc2F)ccc1-n1cc(C(F)(F)F)nn1
(II) NS(=O)(=O)c1cc(NC(=O)Cc2ccccc2OC(F)F)ccc1-n1cc(C(F)(F)F)cn1
Just curious, which one has the larger IC50 reading, I or II ? Reply briefly: the label of your chosen item.
II
